Molecular target: T1, recombinant human sc-uPA (human, UniProt P00749 21-431)
T1 construct: 411 amino acid single-chain zymogen expressed in HEK293; the 20-residue signal peptide is not present in the mature protein; also called human single-chain uPA; pro-uPA
Assay: SPR, mAb immobilised
measured-parameter: pKd
Quick note: pKd values are minus log10 of concentrations in mol/L.

binder	pKd
rec0266-0000-0010-VH_G96Y (antibody, mouse IgG1, V domains shown) VH: DVKLVESGGGLVKPGGSLKLSCVASGFTFSSYTMSWVRQTPEKRLEWVATISGGGSHIYYADSVKGRFTISRDNAKNTLYLQMSSLKSEDTAIYYCTRDYRDGSWFAYWGQGTLVTVSA VL: DIVMTQSPATLSVTPGDRVSLSCRTSQSIGDYLHWYQQKSHESPRLLIKYVSQSISGIPSRFSGSGSGSDFTLSINSVESEDVGVYYCQNSHSFPLTFGSGTKLELKR	7.89
rec0266-0000-0010-VH_D95A (antibody, mouse IgG1, V domains shown) VH: DVKLVESGGGLVKPGGSLKLSCVASGFTFSSYTMSWVRQTPEKRLEWVATISGGGSHIYYADSVKGRFTISRDNAKNTLYLQMSSLKSEDTAIYYCTRAGRDGSWFAYWGQGTLVTVSA VL: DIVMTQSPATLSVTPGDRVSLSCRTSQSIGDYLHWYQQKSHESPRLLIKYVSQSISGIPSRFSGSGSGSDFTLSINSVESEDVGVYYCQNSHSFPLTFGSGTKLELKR	8.59

Here is the next item to consider.
QUERY: Give its pKd value. Item: rec0266-0000-0010-VH_G96E (antibody, mouse IgG1, V domains shown) VH: DVKLVESGGGLVKPGGSLKLSCVASGFTFSSYTMSWVRQTPEKRLEWVATISGGGSHIYYADSVKGRFTISRDNAKNTLYLQMSSLKSEDTAIYYCTRDERDGSWFAYWGQGTLVTVSA VL: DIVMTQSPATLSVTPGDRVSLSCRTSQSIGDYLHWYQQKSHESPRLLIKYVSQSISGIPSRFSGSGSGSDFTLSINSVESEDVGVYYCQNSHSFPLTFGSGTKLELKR
RESULT: 8.64
